Just for reference, patent US20240239794A1 is where these values come from.

- experimental-system: Recombinant human PKC-theta (His-tagged 362-706) (Homo sapiens (Human), UniProt Q04759)
- Sequence (Q04759 362-706): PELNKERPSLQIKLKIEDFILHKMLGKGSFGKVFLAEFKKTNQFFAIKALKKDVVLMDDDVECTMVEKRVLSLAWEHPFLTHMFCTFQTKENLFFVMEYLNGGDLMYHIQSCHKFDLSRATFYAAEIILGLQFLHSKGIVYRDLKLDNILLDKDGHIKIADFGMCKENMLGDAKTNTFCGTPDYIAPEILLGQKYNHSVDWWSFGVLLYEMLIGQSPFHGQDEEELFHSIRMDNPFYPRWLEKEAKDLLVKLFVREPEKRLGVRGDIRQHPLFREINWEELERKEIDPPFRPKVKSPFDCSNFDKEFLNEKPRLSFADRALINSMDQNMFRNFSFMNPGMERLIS
- procedure-summary: PKC-theta inhibition assay (HTRF KinEASE kit)
- Type: biochemical
- conditions-used: ATP 6.5 μM, read-out: PKC-theta HTRF pIC50 (converted)
result-type: IC50 (nM)
Your answer is read as nM, so omit the unit and give the number.

CO[C@]1(C)C(=O)Nc2nccc(-c3nn([C@H]4CCNC[C@H]4F)c4ccccc34)c21 (single isomer, unassigned) [Example 91]: 7.94
C[C@@]1(O)C(=O)Nc2nccc(-c3nn(C4CCNCC4)c4ccccc34)c21 (single isomer, unassigned) [Example 27]: 50.1

Continue with the next compound.
I'm curious: which IC50 was measured for CC[C@@]1(C)C(=O)Nc2nccc(-c3nn([C@@H]4CCNC[C@@H]4F)c4ccc(F)cc34)c21 (single isomer, unassigned) [Example 97] tested on Recombinant human PKC-theta (His-tagged 362-706) (Homo sapiens (Human), UniProt Q04759)?
2.51

====

Below, each entry is listed with its recorded PKC-theta/PKC-delta selectivity.
- experimental-system: Recombinant human PKC-delta (His-tagged 345-676) (Homo sapiens (Human), UniProt Q05655)
- Sequence (Q05655 345-676): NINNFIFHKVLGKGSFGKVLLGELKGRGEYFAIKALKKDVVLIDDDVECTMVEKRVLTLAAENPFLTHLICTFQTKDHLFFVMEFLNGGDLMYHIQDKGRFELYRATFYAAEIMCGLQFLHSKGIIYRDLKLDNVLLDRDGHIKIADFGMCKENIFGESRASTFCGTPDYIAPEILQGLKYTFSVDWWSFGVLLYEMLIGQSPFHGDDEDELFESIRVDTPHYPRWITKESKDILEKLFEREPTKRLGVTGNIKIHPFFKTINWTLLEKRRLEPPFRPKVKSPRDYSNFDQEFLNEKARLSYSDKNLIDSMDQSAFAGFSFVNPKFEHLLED
- procedure-summary: PKC-delta inhibition assay (HTRF KinEASE kit), PKC-theta/PKC-delta selectivity
- Assay type: biochemical
- conditions-used: ratio, PKC-theta over PKC-delta, HTRF assays

Sample answers from the record:
O=c1[nH]c2nccc(-c3cnn(C4CCNCC4)c3)c2[nH]1: 1
CC[C@]1(O)C(=O)Nc2nccc(-c3nn([C@H]4CCNC[C@H]4F)c4ccccc34)c21 (single isomer, unassigned): 14
C[C@@]1(O)C(=O)Nc2nccc(-c3nn(C4CCNCC4)c4c(OC(F)F)cccc34)c21 (single isomer, unassigned): 11
CO[C@@]1(C)C(=O)Nc2nccc(-c3nn(CC4(F)CCNCC4)c4ccccc34)c21 (single isomer, unassigned): 10
CCC1(C)C(=O)Nc2nccc(-c3nn([C@@H]4CCNC[C@@H]4F)c4ccccc34)c21 (some centres unmarked): 8
CO[C@@]1(C)C(=O)Nc2nccc(-c3nn([C@@H]4CCNC[C@@H]4F)c4ccccc34)c21 (single isomer, unassigned): 15
CO[C@]1(C)C(=O)Nc2nccc(-c3nn([C@H]4CCNC[C@H]4F)c4ccccc34)c21 (single isomer, unassigned): 19
CC1(O)C(=O)Nc2nccc(-c3cn([C@@H]4CCNC4)c4ccccc34)c21 (some centres unmarked) [Example 111]: 7
CO[C@@]1(C)C(=O)Nc2nccc(-c3nn([C@H]4CCNC[C@H]4F)c4ccccc34)c21 (single isomer, unassigned): 10
C[C@@]1(O)C(=O)Nc2nccc(-c3nn(C4(CC#N)CCC4)c4ncccc34)c21 (single isomer, unassigned): 8

We next turn to a different molecule, shown below.
Would you kindly share the measured PKC-theta/PKC-delta selectivity for CC1(C)C(=O)Nc2nccc(-c3nn([C@H]4CCNC4)c4c(F)cccc34)c21 ?
20

====

- experimental-system: Recombinant human PKC-delta (His-tagged 345-676) (Homo sapiens (Human))
- procedure-summary: PKC-delta inhibition assay (HTRF KinEASE kit), PKC-theta/PKC-delta selectivity
- Type: biochemical
- conditions-used: ratio, PKC-theta over PKC-delta, HTRF assays
- Experimental: PKC-theta and PKC-delta biochemical activities were measured using the PKC-theta HTRF KinEASEkit kit, according to manufacturer's instructions (Cisbio, catalogue number 61ST1PEJ). […] Fluorescence was measured on an Envision 2103 plate reader with optical setup for […] in the HTRF mode. The ratio of acceptor and donor emission signals was calculated for each well. […]
result-type: PKC-theta/PKC-delta selectivity

Below, 3 compounds whose answers are already recorded.
C[C@]1(O)C(=O)Nc2nccc(-c3nn(C4(CC#N)CCC4)c4cc(C(F)(F)F)ccc34)c21 (single isomer, unassigned) [Example 64]: 28
CC[C@@]1(OC)C(=O)Nc2nccc(-c3nn(CC4(F)CCNCC4)c4ccccc34)c21 (single isomer, unassigned) [Example 88]: 14
C[C@@]1(O)C(=O)Nc2nccc(-c3nn(C4(CC#N)CCC4)c4ccccc34)c21 (single isomer, unassigned) [Example 40]: 17

Switching to the query record.
Find the recorded PKC-theta/PKC-delta selectivity belonging to COC1(C)C(=O)Nc2nccc(-c3nn([C@@H]4CCNC[C@@H]4F)c4ccccc34)c21 (stereo partly shown) [Example 61] and report it.
16

====

- experimental-system: Recombinant human PKC-delta (His-tagged 345-676) (Homo sapiens (Human))
- procedure-summary: PKC-delta inhibition assay (HTRF KinEASE kit), PKC-theta/PKC-delta selectivity
- Assay type: biochemical
- conditions-used: ratio, PKC-theta over PKC-delta, HTRF assays
Where a name gives a salt, the structure may show the parent alone.
Measured PKC-theta/PKC-delta selectivity of individual entries

# count of solved cases: 8
CO[C@@]1(C)C(=O)Nc2nccc(-c3nn(CC4(F)CCNCC4)c4cc(F)ccc34)c21 (single isomer, unassigned): 15
CC[C@@]1(O)C(=O)Nc2nccc(-c3nn([C@H]4CCNC[C@H]4F)c4ccccc34)c21 (single isomer, unassigned): 12
CC1(O)C(=O)Nc2nccc(-c3cn(C4(CC#N)CCC4)c4ccccc34)c21 (stereo not drawn): 9
CC1(C)C(=O)Nc2nccc(-c3nn(C[C@@]4(C)COCCN4)c4cc(F)ccc34)c21: 38
CC1(C)C(=O)Nc2nccc(-c3nn([C@@H]4CCNC[C@@H]4F)c4ccccc34)c21: 19
CC[C@]1(C)C(=O)Nc2nccc(-c3nn([C@H]4CCNC[C@H]4F)c4ccccc34)c21 (single isomer, unassigned): 17
CC[C@@]1(C)C(=O)Nc2nccc(-c3nn([C@H]4CCNC[C@H]4F)c4ccc(F)cc34)c21 (single isomer, unassigned): 105
C[C@@]1(O)C(=O)Nc2nccc(-c3nn([C@@H]4CCNC[C@@H]4F)c4ccccc34)c21 (single isomer, unassigned): 11

// returns reported PKC-theta/PKC-delta selectivity for input COC1(C)C(=O)Nc2nccc(-c3nn(C4(CC#N)CCC4)c4ccccc34)c21 (stereo not drawn)
14

And then CC1(C)C(=O)Nc2nccc(-c3nn([C@H]4CCNC[C@@H]4F)c4ccccc34)c21 (racemic) , what is it?
14

Would you kindly repeat that for CCC1(C)C(=O)Nc2nccc(-c3nn([C@H]4CCNC4)c4ccccc34)c21 (stereo partly drawn) ?
13

Follow-up item: CCC1(O)C(=O)Nc2nccc(-c3nn(C4(CC#N)CCC4)c4ccccc34)c21 (stereo not drawn)
11

Cc1nn(C2CCNCC2)cc1-c1ccnc2[nH]c(=O)[nH]c12 ?
0.2

# iterate: CN[C@]1(C)C(=O)Nc2nccc(-c3nn(C4(CC#N)CCC4)c4ccccc34)c21 (single isomer, unassigned)
25

Same question, O=C1Nc2nccc(-c3nn(C4(CO)CCNC4)c4cc(F)ccc34)c2C12CCCC2 (stereo not drawn) [Example 55, dihydrochloride] this time
4

====

- experimental-system: Recombinant human PKC-theta (His-tagged 362-706) (Homo sapiens (Human), UniProt Q04759)
- procedure-summary: PKC-theta inhibition assay (HTRF KinEASE kit)
- Type: biochemical
- conditions-used: ATP 6.5 μM, read-out: PKC-theta HTRF pIC50 (converted)
result-type: IC50
Your reply should be a number followed by the unit it is expressed in.

C[C@@]1(O)C(=O)Nc2nccc(-c3nn(CC4CCNCC4)c4ccccc34)c21 (single isomer, unassigned) [Example 29]: 0.398 nM
CN[C@@]1(C)C(=O)Nc2nccc(-c3nn(C4(CC#N)CCC4)c4ccccc34)c21 (single isomer, unassigned) [Example 94]: 3.98 nM
CC[C@]1(C)C(=O)Nc2nccc(-c3nn([C@@H]4CCNC[C@@H]4F)c4ccccc34)c21 (single isomer, unassigned) [Example 106]: 0.794 nM

Kindly review the next molecule as well.
What does the record list as IC50 for CC[C@]1(C)C(=O)Nc2nccc(-c3nn([C@H]4CCNC4)c4ccccc34)c21 (single isomer, unassigned) [Example 65] ?
50.1 nM

====

- experimental-system: Recombinant human PKC-theta (His-tagged 362-706) (Homo sapiens (Human), UniProt Q04759)
- procedure-summary: PKC-theta inhibition assay (HTRF KinEASE kit)
- Type: biochemical
- conditions-used: ATP 6.5 μM, binned A to H, read-out: PKC-theta HTRF pIC50 (binned) (converted)
result-type: IC50

Some solved cases for reference:
CC1(C)C(=O)Nc2nccc(-c3nn([C@H]4CCCNC4)c4ccccc34)c21: 10 to 31.6 nM
C[C@@]1(O)C(=O)Nc2nccc(-c3nn(CC4(F)CCNCC4)c4ccccc34)c21 (single isomer, unassigned): ≤ 1 nM

Return reported IC50; argument: CC1(C)C(=O)Nc2nccc(-c3nn(C4CCNCC4)c4cc(F)ccc34)c21
1 to 3.16 nM

Further, for CC1(O)C(=O)Nc2nccc(-c3ccn(C4CCNCC4)n3)c21 (stereo not shown) ?
31.6 to 100 nM
